- Test system: MDA-MB-468 breast
- PROTOCOL SUMMARY: NCI-60 one-dose screen, 48 h
- DETAILS: 10 µM unless noted
Compounds without any hit were thinned out: in the full panel of roughly 83,000, 20% have a hit. Calls of active or inactive are those of the source. The calls were made as follows: active = growth percent below 10; inactive = the rest.
Can you answer with just one of these options? active, inactive

# COMPOUND, TARGET SYSTEM, CLASSIFICATION
rows = [
    ("COc1ccc(NC(=O)CSc2nnc(-c3cc(-c4ccccc4)nc4ccccc34)n2-c2ccccc2)cc1", "MDA-MB-468 breast", "inactive"),
    ("CCOC(=O)c1ccc(NC(=O)CSC(CC(=O)c2sc(Nc3ccccn3)nc2C)c2ccccc2F)cc1 (stereo not given)", "MDA-MB-468 breast", "active"),
    ("COc1ccc(CCn2cncc2-c2c[nH]c3ccccc23)cc1", "MDA-MB-468 breast", "inactive"),
    ("Cc1ccc(NC(=O)c2sc3nc(C)c(C(O)c4ccccc4)cc3c2N)cc1 (stereo not given)", "MDA-MB-468 breast", "inactive"),
    ("C/C(Cc1ccc(Cl)cc1)=C(/c1ccc(Cl)cc1)c1ccc(OCCN2CCCC2)cc1", "MDA-MB-468 breast", "inactive"),
    ("CN(C)/N=C/c1ccccc1O", "MDA-MB-468 breast", "inactive"),
    ("CCc1ccc(C2=NN(c3ccc(S(C)(=O)=O)cc3)C(=O)CC2)cc1", "MDA-MB-468 breast", "inactive"),
    ("O=C(/C=C/c1ccc(Cl)cc1)c1ccc(O)c(CN2CCN(c3cc4c(cc3F)c(=O)c(C(=O)O)cn4C3CC3)CC2)c1", "MDA-MB-468 breast", "inactive"),
    ("COc1ccccc1C(=O)Nc1cccc(NC(=O)c2ccoc2C)c1", "MDA-MB-468 breast", "inactive"),
    ("COc1cc([C@@H]2c3cc4c(cc3[C@H](O)[C@H]3COC[C@@H]23)OCO4)cc(OC)c1OC", "MDA-MB-468 breast", "inactive"),
]

INPUT: Please indicate how the test categorized COc1ccc2[nH]c(-c3ccc(Cl)cc3)cc(=O)c2c1 .
OUTPUT: inactive

INPUT: Please indicate how the test categorized CCCCCCN1C(=O)/C(=c2\sc3n(c2=O)C2C(NN=3)N(CC)C(=O)N2CC)c2ccccc21 (stereo not given) .
OUTPUT: active

INPUT: Please indicate how the test categorized COc1ccc(C2=NN(C(C)=O)C(c3cccc(Nc4ccnc5cc(Cl)ccc45)c3)C2)cc1 (stereo not given) .
OUTPUT: inactive

INPUT: Please indicate how the test categorized COc1ccc(/C(=N/O)c2cc(OC)c(OC)c(OC)c2)c(OC)c1N .
OUTPUT: inactive

INPUT: Please indicate how the test categorized COc1cc(Cl)cc(-c2nn(-c3cccc(NC(=O)c4ccc(Cl)c(Cl)c4)c3)cc2-c2ccncc2)c1 .
OUTPUT: inactive

INPUT: Please indicate how the test categorized COc1cccc(-n2cc(-c3nc(Nc4cc(C)[nH]n4)c4ccccc4n3)nn2)c1 .
OUTPUT: inactive

INPUT: Please indicate how the test categorized Cc1nnc2nc(N)[nH]n2c1=O .
OUTPUT: inactive

INPUT: Please indicate how the test categorized O=c1[nH]c(CCl)nc2c1cnn2-c1ccccc1 .
OUTPUT: inactive

INPUT: Please indicate how the test categorized O=[N+]([O-])c1ccc(Cl)c(S(=O)(=O)O)c1 .
OUTPUT: inactive

INPUT: Please indicate how the test categorized C=CC(=O)NCc1ccc(Nc2nccc(-c3ccc(N4CCCC4)c(C#N)c3)n2)cc1 .
OUTPUT: inactive

INPUT: Please indicate how the test categorized COc1cc(F)c(F)c(Nc2ccc(I)cc2F)c1NS(=O)(=O)C1(C[C@H](O)CO)CC1 .
OUTPUT: inactive

INPUT: Please indicate how the test categorized O=C(O)c1cn(C2CC2)c2cc(N3CCN(C(=O)CN4C(=O)CSC4=O)CC3)c(F)cc2c1=O .
OUTPUT: inactive
